System: Chlamydomonas reinhardtii
Assay: 8-point dose response assay (0.25-30 μM)
Format: cell-based
Parameters: reference not given here
Conditions: 1.25 μM compound; 8-point dose response, Nile Red lipid accumulation

compound | Dose Response Assay 1.25 μM
Cc1cccc(N2CCN(Cc3ccc([N+](=O)[O-])cc3)CC2)c1C | 0.80
COc1ccc(C(=O)NCCN2CCOCC2)cc1[N+](=O)[O-] | 0.84
O=C1CC(N2CCc3ccccc3C2)C(=O)N1c1ccc([N+](=O)[O-])cc1 (stereo not drawn) | 1.14
CC(=O)c1nc2cc([N+](=O)[O-])ccc2n1Cc1ccccc1 | 0.79
CC(=O)Nc1ccc(S(=O)(=O)Nc2cc([N+](=O)[O-])ccc2C)cc1 | 0.89
O=C(Nc1ccc(Cc2ccncc2)cc1)c1ccc([N+](=O)[O-])cc1Cl | 1.39
Cc1c(C(=O)Nc2ccc(F)c(F)c2)cccc1[N+](=O)[O-] | 0.89
CCC1CCCCN1C(=O)c1ccc(Cl)cc1[N+](=O)[O-] (stereo not drawn) | 1.01
O=C(Nc1ccc([N+](=O)[O-])cc1)c1cccc(Cl)c1Cl | 1.23
Cc1c(NC(=O)COc2ccc(Br)cc2)cccc1[N+](=O)[O-] | 0.91
Cc1ccc(C(=O)c2ccc(N3CCN(C)CC3)c([N+](=O)[O-])c2)cc1 | 0.94
O=C(Nc1ccccc1C(=O)NCc1ccccc1)c1ccc([N+](=O)[O-])cc1 | 1.13
Cc1ccsc1C=C(C#N)c1nc(-c2ccc([N+](=O)[O-])cc2)cs1 | 1.16
Cl.Oc1ccccc1CNCCC12CC3CC(CC(C3)C1)C2 | 0.88
C=CCn1c(SCC(=O)O)nnc1-c1ccc([N+](=O)[O-])cc1 | 0.99

---

Tested on: Chlamydomonas reinhardtii
Experiment: 8-point dose response assay (0.25-30 μM)
Format: cell-based
Design: reference not given here
Details: 2.5 μM compound; 8-point dose response, Nile Red lipid accumulation
If the reported Dose Response Assay 2.5 μM equals or exceeds 1, assign yes (1). If not, assign no (0).

molecule | measured_target | label
Cl.Oc1ccccc1CNCCC12CC3CC(CC(C3)C1)C2 | Chlamydomonas reinhardtii | yes (1)
COc1cc(CN2CCN(Cc3ccccc3)CC2)cc(OC)c1 | Chlamydomonas reinhardtii | yes (1)
Cc1c(C(=O)Nc2ccc(F)c(F)c2)cccc1[N+](=O)[O-] | Chlamydomonas reinhardtii | no (0)
O=C(Nc1ccc(Cc2ccncc2)cc1)c1ccc([N+](=O)[O-])cc1Cl | Chlamydomonas reinhardtii | yes (1)
O=C(Nc1ccc([N+](=O)[O-])cc1)c1cccc(Cl)c1Cl | Chlamydomonas reinhardtii | yes (1)
O=C(Nc1ccccc1C(=O)NCc1ccccc1)c1ccc([N+](=O)[O-])cc1 | Chlamydomonas reinhardtii | yes (1)
O=C(Nc1ccc([N+](=O)[O-])cc1)c1ccccc1Cl | Chlamydomonas reinhardtii | no (0)
Cc1ccc(C(=O)c2ccc(N3CCN(C)CC3)c([N+](=O)[O-])c2)cc1 | Chlamydomonas reinhardtii | yes (1)
COc1ccc(C(=O)NCCN2CCOCC2)cc1[N+](=O)[O-] | Chlamydomonas reinhardtii | no (0)
COc1ccccc1N1CCN(Cc2ccc(Cl)cc2)CC1 | Chlamydomonas reinhardtii | yes (1)
CC(=O)NC1=C(N2CCN(Cc3ccccc3)CC2)C(=O)c2ccccc2C1=O | Chlamydomonas reinhardtii | yes (1)
COc1ccc(C(=O)c2ccc(N3CCN(C)CC3)c([N+](=O)[O-])c2)cc1 | Chlamydomonas reinhardtii | yes (1)
Fc1ccc(CN2CCN(c3ccccc3Cl)CC2)cc1 | Chlamydomonas reinhardtii | yes (1)
Oc1ccc(Cl)cc1CN1CCN(Cc2ccccc2)CC1 | Chlamydomonas reinhardtii | yes (1)
Brc1ccc(CN2CCN(c3ccccc3)CC2)cc1 | Chlamydomonas reinhardtii | yes (1)
CCOc1c(Cl)cc(C(=O)Nc2cccc([N+](=O)[O-])c2)cc1Cl | Chlamydomonas reinhardtii | no (0)
O=[N+]([O-])c1ccccc1CN1CCN(CC2CC3C=CC2C3)CC1 (stereo not shown) | Chlamydomonas reinhardtii | yes (1)
CCc1ccc(CN2CCN(c3ccccc3C)CC2)cc1 | Chlamydomonas reinhardtii | yes (1)
COc1ccccc1C(=O)N1CCN(C(=O)C(c2ccccc2)c2ccccc2)CC1 | Chlamydomonas reinhardtii | yes (1)
